- assay: Maximum absorbance wavelength and molar extinction coefficient in ethanol
- Format: physicochemical
- condition-parameters: maximum absorbance wavelength in ethanol
attribute-measured: λmax (EtOH) (nm)
Form entry: value (nm) — number only.

Given item CC1(C)C(/C=C/C=C/C=C/C=C2\N(CCCCS(=O)(=O)[O-])c3ccc4ccccc4c3C2(C)C)=[N+](CCCCS(=O)(=O)[O-])c2ccc3ccccc3c21.[Na+] [ICG, Indocyanine green] , the value recorded as its λmax (EtOH) is 787

The compound listed as CCCCCCN1/C(=C/C=C/C=C/C=C/C2=[N+](CCCCS(=O)(=O)[O-])c3ccc4ccccc4c3C2(C)C)C(C)(C)c2c1ccc1ccccc21 [ICG-8-C6] has a reported λmax (EtOH) of 787

Measured λmax (EtOH), CCCCCCN(CCCCCC)c1ccc(OC2=C(/C=C/C3=[N+](CCCCS(=O)(=O)[O-])c4ccc5ccccc5c4C3(C)C)CCC/C2=C\C=C2\N(CCCCS(=O)(=O)[O-])c3ccc4ccccc4c3C2(C)C)cc1.[Na+] [ICG-9] : 810

====

- assay: Maximum absorbance wavelength and molar extinction coefficient in ethanol
- Type: physicochemical
- condition-parameters: maximum absorbance wavelength in ethanol
attribute-measured: λmax (EtOH) (nm)
Please state the figure in nm; there is no need to write the unit.

Looking up CC1(C)C(/C=C/C=C/C=C/C=C2/N(CCC(=O)O)c3ccc4ccccc4c3C2(C)C)=[N+](CCCCS(=O)(=O)[O-])c2ccc3ccccc3c21 [ICG-6] , I see its λmax (EtOH) listed as 786

Recorded λmax (EtOH) (compound CCCCCCCCN1/C(=C/C=C/C=C/C=C/C2=[N+](CCCCS(=O)(=O)[O-])c3ccc4ccccc4c3C2(C)C)C(C)(C)c2c1ccc1ccccc21 [ICG-8-C8] ): 788

Input CCCCCCCCCCN1/C(=C/C=C/C=C/C=C/C2=[N+](CCCCS(=O)(=O)[O-])c3ccc4ccccc4c3C2(C)C)C(C)(C)c2c1ccc1ccccc21 [ICG-8-C10] . Output λmax (EtOH): 788

Per the record, CCCCN1/C(=C/C=C/C=C/C=C/C2=[N+](CCCCS(=O)(=O)[O-])c3ccc4ccccc4c3C2(C)C)C(C)(C)c2c1ccc1ccccc21 [ICG-8-C4] has λmax (EtOH) of 787
